For each record, write down the corresponding % Dose remaining 24 h CD-1 mice.
experiment: Lipid clearance: % dose remaining in mouse liver 6 h and 24 h after administration of nanoparticle compositions; type: in vivo, CD-1 mice; conditions: 24 h, CD-1 mice

Example compounds with recorded % Dose remaining 24 h CD-1 mice:
| compound | % Dose remaining 24 h CD-1 mice |
| --- | --- |
| CCCCCCCCCN(CCCCCCCCC)CCN(CCCCCCCC(=O)OC)CC(=O)N1CCN(C(=O)CN(CCCCCCCCC)CCCCCCCCC)CC1 [Compound 47] | <1% |
| CCCCCCCCCN(CCCCCCCCC)CCN(CCCCCCCCC)CC(=O)N1CCN(C(=O)CN(CCCCCCCCC)CCCCCCCC(=O)OC)CC1 [Compound 44] | <1% |
| CCCCCCCCCN(CCCCCCCC(=O)OC)CCN(CCCCCCCC(=O)OC)CC(=O)N1CCN(C(=O)CN(CCCCCCCCC)CCCCCCCCC)CC1 [Compound 48] | <1% |
| CCCCCCCCCN(CCCCCCCCC)CCN(CCCCCCCCC)CCC1CCN(C(=O)CN(CCCCCCCCC)CCCCCCCCC)CC1 [Compound 50] | 47% |
| CCCCCCCCCN(CCCCCCCCC)CCN(CCCCCCCCC)CC(=O)N1CC2CC1CN2C(=O)CN(CCCCCCCCC)CCCCCCCCC (stereo not drawn) [Compound 42] | 53% |

Please report % Dose remaining 24 h CD-1 mice for every entry that follows.
1. CCCCCCCCCCCCCCN(CCCCCCCCCCCCCC)CC(=O)N1CCN(C(=O)CN(CCCCCCCCC)CCN(CCCCCCCCC)CCCCCCCCC)CC1 [Compound 51]
2. CCCCCCCCCN(CCCCCCCC(=O)OC)CCN(CCCCCCCCC)CC(=O)N1CCN(C(=O)CN(CCCCCCCCC)CCCCCCCCC)CC1 [Compound 46]
3. CCCCCCCCCN(CCCCCCCCC)CCC(=O)N1CCN(C(=O)CCN(CCCCCCCCC)CCN(CCCCCCCCC)CCCCCCCCC)CC1 [Compound 52]
4. CCCCCCCCCN(CCCCCCCCC)CCC1CCN(C(=O)CN(CCCCCCCCC)CCN(CCCCCCCCC)CCCCCCCCC)CC1 [Compound 49]

1. 41%
2. <1%
3. 40%
4. 40%

---

Kindly supply the reported Total Flux Spleen values for the records listed here.
system: modified luciferase expression; test: Expression of Luc in different organs (liver, lung, spleen, femur) 6 hours after intravenous administration; format: in vivo; settings: Table 20-3, mice, i.v., 0.5 mpk, spleen
Numbers only.

Example entries begin here.
| compound | Total Flux Spleen |
| --- | --- |
| CCCCCCCCCCCCN(CCCO)CCN(CCCCCCCCCCCC)CCCCCCCCCCCC | 2.20E+06 |
| CCCCCCCCCCCCN(CCCCO)CCN(CCCCCCCCCCCC)CCCCCCCCCCCC | 1.65E+06 |
| CCCCCCCCCCCCN(CCCCCCCCCCCC)CCN(CCCCCCCCCCCC)CC(=O)O | 1.70E+05 |
| CCCCCC=CCC=CCCCCCCCCC(CCCCCCCCC=CCC=CCCCCC)OC(=O)CCCN(C)C (stereo not drawn) [MC3, reference compound] | 2.85E+07 |
| CCCCCCCCCCCCN(CCCCCCCCCCCC)CCN(CCO)CCCCCC(=O)OCCCCC | 6.35E+06 |

Continue with the compound presented below.
# returns recorded Total Flux Spleen (system: modified luciferase expression) for `CCCCCCCCCN(CCO)CCN(CCCCCCCCC)CCCCCCCCC`
6.57E+04
